These data points were gathered from ChEMBL document CHEMBL4368886.

# System: Candida albicans
# PROTOCOL TEXT: Antimicrobial activity against Candida albicans 855-653 measured after 14 days by two-fold serial dilution method
# Type: functional
# EXPERIMENTAL PARAMETERS: 855-653, 336 h
The entries below are paired with their reported MIC.
Number in µM, nothing else.

As a guide, the following entries are already answered.
[[record]]
compound = "CCCCCCCC[N+](C)(C)CCNC(=O)CCc1cc(C(C)(C)C)c(O)c(C(C)(C)C)c1"
observed_value = 29

[[record]]
compound = "CC(=O)N1CCN(c2ccc(OCC3COC(Cn4ccnc4)(c4ccc(Cl)cc4Cl)O3)cc2)CC1 (stereo not drawn)"
observed_value = 7.6

[[record]]
compound = "CCOP(=O)(OCC)C(NCC[N+](C)(C)Cc1ccccc1)c1cc(C(C)(C)C)c(O)c(C(C)(C)C)c1 (stereo not drawn)"
observed_value = 177

[[record]]
compound = "CC[N+](C)(C)CCCNC(c1cc(C(C)(C)C)c(O)c(C(C)(C)C)c1)P(=O)(OC(C)C)OC(C)C (stereo not drawn)"
observed_value = 422

[[record]]
compound = "CCCCCCCCCCCCCCCC[N+](C)(C)CCCNC(=O)CCc1cc(C(C)(C)C)c(O)c(C(C)(C)C)c1"
observed_value = 187

[[record]]
compound = "CCCCCCCCCC[N+](C)(C)CCNC(=O)CCc1cc(C(C)(C)C)c(O)c(C(C)(C)C)c1"
observed_value = 3.3

[[record]]
compound = "CCCCCCCCCC[N+](C)(C)CCCNC(c1cc(C(C)(C)C)c(O)c(C(C)(C)C)c1)P(=O)(OC(C)C)OC(C)C.[Br-] (stereo not drawn)"
observed_value = 11


# evaluate next
The reported value for CC(C)OP(=O)(OC(C)C)C(NCC[N+](C)(C)Cc1ccccc1)c1cc(C(C)(C)C)c(O)c(C(C)(C)C)c1 (stereo not drawn) in terms of MIC is 195
